- Target desc: human Nav1.5 channels stably expressed in HEK 293 cells (Homo sapiens, UniProt Q14524)
- Construct: expressed in transfected cells; host or cells: HEK 293
- Sequence (Q14524 whole entry): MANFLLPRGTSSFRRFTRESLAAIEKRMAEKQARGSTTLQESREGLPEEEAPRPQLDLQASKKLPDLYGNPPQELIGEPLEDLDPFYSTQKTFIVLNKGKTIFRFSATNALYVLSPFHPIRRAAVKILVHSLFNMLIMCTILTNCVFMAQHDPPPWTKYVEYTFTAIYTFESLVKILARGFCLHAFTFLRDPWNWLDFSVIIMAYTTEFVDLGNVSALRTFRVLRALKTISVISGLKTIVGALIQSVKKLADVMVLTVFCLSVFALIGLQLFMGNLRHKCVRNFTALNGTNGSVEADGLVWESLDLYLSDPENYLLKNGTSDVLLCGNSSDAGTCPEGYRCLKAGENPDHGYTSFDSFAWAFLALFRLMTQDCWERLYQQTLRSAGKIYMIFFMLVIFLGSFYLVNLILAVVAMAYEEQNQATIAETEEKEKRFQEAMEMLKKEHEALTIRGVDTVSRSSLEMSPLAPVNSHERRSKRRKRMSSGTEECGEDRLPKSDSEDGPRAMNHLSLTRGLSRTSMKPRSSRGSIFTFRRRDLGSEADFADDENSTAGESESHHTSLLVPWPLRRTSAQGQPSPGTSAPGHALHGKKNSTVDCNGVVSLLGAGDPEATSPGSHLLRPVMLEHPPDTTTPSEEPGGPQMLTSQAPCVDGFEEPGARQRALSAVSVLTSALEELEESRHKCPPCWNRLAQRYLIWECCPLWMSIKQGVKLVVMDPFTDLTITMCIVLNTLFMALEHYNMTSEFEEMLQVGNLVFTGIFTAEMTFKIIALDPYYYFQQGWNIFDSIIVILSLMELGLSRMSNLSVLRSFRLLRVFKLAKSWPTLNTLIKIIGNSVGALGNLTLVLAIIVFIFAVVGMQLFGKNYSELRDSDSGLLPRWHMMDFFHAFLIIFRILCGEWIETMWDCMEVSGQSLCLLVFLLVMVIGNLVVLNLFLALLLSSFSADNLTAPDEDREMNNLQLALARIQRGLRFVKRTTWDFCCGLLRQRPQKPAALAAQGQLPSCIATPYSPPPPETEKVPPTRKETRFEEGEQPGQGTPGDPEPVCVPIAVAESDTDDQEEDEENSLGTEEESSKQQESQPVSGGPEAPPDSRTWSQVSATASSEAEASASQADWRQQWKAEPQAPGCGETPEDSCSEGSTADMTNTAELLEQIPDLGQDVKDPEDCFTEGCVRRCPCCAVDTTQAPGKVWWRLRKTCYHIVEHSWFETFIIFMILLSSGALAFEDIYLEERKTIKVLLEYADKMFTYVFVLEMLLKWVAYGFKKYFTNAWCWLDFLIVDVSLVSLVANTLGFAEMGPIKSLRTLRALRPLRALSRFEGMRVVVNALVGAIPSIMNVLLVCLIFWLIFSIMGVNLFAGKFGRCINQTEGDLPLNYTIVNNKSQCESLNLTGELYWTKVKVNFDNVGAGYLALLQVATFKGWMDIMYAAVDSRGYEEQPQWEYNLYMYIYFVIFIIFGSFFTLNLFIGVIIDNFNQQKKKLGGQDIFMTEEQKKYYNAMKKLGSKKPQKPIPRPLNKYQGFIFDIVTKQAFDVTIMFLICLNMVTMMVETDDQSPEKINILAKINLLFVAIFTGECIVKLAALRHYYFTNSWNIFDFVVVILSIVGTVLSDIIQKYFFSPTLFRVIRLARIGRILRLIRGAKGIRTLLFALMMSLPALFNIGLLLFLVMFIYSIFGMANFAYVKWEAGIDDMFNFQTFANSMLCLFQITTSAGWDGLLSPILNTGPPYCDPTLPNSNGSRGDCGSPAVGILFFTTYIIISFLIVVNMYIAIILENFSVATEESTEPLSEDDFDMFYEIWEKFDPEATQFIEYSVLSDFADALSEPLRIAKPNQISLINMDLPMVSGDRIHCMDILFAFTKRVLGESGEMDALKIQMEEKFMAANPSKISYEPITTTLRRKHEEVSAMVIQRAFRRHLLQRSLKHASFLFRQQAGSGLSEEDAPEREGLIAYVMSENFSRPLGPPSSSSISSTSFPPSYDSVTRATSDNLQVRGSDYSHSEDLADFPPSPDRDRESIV
- Assay notes: IonWorks Quattro automated patch-clamp, inactivated state block of Nav1.5 (selectivity)
- Assay type: cell-based
- Setup conditions: IonWorks measurement, both channels in HEK 293 cells
Measured parameter: ratio of Nav1.7 potency:Nav 1.5 potency

Entry CCCC[C@@H](CNc1cc(F)c(S(=O)(=O)Nc2ncc(F)s2)cc1Cl)NCCC [Ex7-5] — recorded ratio of Nav1.7 potency:Nav 1.5 potency = > 805

Entry CN[C@H](CNc1cc(F)c(S(=O)(=O)Nc2ncc(F)s2)cc1Cl)CC1CCC1 [Ex2-12] — recorded ratio of Nav1.7 potency:Nav 1.5 potency = > 32

Entry CN[C@H](CNc1cc(F)c(S(=O)(=O)Nc2nccs2)cc1Cl)CC1CCCCC1 [Ex1-18] — recorded ratio of Nav1.7 potency:Nav 1.5 potency = > 2200

Entry CN[C@H](CNc1cc(F)c(S(=O)(=O)Nc2nccs2)cc1Cl)Cc1cccc(Br)c1 [Ex1-23] — recorded ratio of Nav1.7 potency:Nav 1.5 potency = > 917

Entry CN[C@H](CNc1cc(F)c(S(=O)(=O)Nc2nccs2)cc1Cl)Cc1ccccc1F [Ex1-29] — recorded ratio of Nav1.7 potency:Nav 1.5 potency = > 106

Entry CN[C@H](CNc1cc(F)c(S(=O)(=O)Nc2ncc(F)s2)cc1Cl)CC1CC1(C)C (some centres unmarked) [Ex2-20] — recorded ratio of Nav1.7 potency:Nav 1.5 potency = > 485

Entry CN[C@H](CNc1cc(F)c(S(=O)(=O)Nc2nccs2)cc1Cl)Cc1ccc(C)cc1 [Ex1-20] — recorded ratio of Nav1.7 potency:Nav 1.5 potency = > 118

Entry CN[C@H](CNc1cc(F)c(S(=O)(=O)Nc2nccs2)cc1Cl)Cc1cccc(F)c1Br [Ex1-33] — recorded ratio of Nav1.7 potency:Nav 1.5 potency = > 254

* * *

- Target desc: human Nav1.7 channels stably expressed in HEK 293 cells (Homo sapiens, UniProt Q15858)
- Sequence (Q15858 whole entry): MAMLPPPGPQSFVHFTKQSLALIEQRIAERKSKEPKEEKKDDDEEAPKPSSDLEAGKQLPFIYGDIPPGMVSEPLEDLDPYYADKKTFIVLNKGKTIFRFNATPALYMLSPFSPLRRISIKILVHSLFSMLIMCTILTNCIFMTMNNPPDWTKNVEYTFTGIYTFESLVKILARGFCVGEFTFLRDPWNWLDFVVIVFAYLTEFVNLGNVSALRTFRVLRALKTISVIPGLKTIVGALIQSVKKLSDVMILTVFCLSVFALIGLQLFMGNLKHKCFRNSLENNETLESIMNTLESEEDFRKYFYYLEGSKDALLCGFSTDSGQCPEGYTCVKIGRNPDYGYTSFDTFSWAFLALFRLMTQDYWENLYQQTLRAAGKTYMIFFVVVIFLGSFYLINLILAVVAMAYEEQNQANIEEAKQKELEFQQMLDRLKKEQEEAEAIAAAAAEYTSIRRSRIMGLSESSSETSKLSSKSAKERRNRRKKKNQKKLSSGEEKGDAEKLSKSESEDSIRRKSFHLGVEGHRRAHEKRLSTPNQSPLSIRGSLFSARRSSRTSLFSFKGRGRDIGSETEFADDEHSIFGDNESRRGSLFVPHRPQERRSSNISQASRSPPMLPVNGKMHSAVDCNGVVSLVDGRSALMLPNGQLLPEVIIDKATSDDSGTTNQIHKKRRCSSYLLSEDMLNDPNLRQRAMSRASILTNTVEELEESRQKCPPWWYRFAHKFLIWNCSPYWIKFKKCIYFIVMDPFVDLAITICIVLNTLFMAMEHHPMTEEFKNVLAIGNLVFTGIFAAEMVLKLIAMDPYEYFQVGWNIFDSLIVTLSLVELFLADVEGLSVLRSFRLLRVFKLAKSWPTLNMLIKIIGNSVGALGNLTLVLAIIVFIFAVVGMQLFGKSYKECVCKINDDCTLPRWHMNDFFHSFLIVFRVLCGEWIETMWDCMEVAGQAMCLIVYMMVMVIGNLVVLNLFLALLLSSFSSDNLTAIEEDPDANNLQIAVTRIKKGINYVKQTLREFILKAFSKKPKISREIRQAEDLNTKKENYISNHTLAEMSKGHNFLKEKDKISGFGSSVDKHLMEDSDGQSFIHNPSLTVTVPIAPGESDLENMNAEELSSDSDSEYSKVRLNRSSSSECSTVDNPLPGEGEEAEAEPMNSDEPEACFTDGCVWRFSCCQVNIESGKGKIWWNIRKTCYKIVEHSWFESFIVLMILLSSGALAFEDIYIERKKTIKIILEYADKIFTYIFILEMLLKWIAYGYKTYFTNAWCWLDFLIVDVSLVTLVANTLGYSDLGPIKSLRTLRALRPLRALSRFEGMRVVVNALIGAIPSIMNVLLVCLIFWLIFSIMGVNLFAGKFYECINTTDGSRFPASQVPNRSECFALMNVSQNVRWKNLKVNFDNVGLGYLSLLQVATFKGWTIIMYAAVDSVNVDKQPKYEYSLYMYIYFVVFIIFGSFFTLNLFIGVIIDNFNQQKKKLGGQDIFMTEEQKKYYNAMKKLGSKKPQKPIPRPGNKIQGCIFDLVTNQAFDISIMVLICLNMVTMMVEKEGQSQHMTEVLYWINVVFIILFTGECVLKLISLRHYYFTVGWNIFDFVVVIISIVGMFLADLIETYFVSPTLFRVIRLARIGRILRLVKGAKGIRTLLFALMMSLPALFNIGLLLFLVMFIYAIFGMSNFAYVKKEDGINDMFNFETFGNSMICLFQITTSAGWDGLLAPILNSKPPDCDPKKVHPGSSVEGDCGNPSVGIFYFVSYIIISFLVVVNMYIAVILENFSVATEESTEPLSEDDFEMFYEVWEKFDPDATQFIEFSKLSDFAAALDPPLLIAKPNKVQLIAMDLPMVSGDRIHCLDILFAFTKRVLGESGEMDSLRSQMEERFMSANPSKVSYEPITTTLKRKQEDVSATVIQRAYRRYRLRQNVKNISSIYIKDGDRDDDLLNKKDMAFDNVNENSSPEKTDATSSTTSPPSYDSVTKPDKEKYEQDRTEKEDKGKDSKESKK
- Assay notes: IonWorks Quattro automated patch-clamp, inactivated state block of Nav1.7
- Setup conditions: double-pulse protocol, read-out: potency for the Nav 1.7 sodium ion channel (as measured by IonWorks)
Could you mark each record 1.0 if its IC50 falls strictly under 100 nM, and 0.0 if it equals or exceeds it?

Strictly below 100 nM in IC50? CN[C@H](CNc1cc(F)c(S(=O)(=O)Nc2ncc(F)s2)cc1Cl)CC1(C)CC1 [Ex6-10]
0.0

Strictly below 100 nM in IC50? CN[C@H](CNc1cc(F)c(S(=O)(=O)Nc2nccs2)cc1Cl)Cc1ccccc1 [Ex1-7]
0.0

Strictly below 100 nM in IC50? CN[C@H](CNc1cc(F)c(S(=O)(=O)Nc2nccs2)cc1Cl)Cc1cccc(F)c1 [Ex1-28]
1.0

Strictly below 100 nM in IC50? CN[C@H](CNc1cc(F)c(S(=O)(=O)Nc2ncc(F)s2)cc1Cl)CC1(CF)CC1 (single isomer, unassigned) [Ex5-4]
0.0

Strictly below 100 nM in IC50? CN[C@H](CNc1cc(F)c(S(=O)(=O)Nc2ncc(F)s2)cc1Cl)CC1CC1(Cl)Cl (stereo partly drawn) [Ex2-21]
0.0

Strictly below 100 nM in IC50? CN[C@@H](CCc1ccccc1)CNc1cc(F)c(S(=O)(=O)Nc2ncc(F)s2)cc1Cl [Ex1-22]
0.0

Strictly below 100 nM in IC50? CN[C@H](CNc1cc(F)c(S(=O)(=O)Nc2ncc(F)s2)cc1Cl)CC1CC1(F)F (stereo partly drawn) [Ex2-22]
0.0

Strictly below 100 nM in IC50? CN[C@H](CNc1cc(F)c(S(=O)(=O)Nc2nccs2)cc1Cl)Cc1ccc(F)cc1 (single isomer, unassigned) [Ex1-12]
1.0

Strictly below 100 nM in IC50? CN[C@H](CNc1cc(F)c(S(=O)(=O)Nc2nccs2)cc1Cl)Cc1ccc(Br)cc1 [Ex1-25]
0.0

* * *

Field: ratio of Nav1.7 potency:Nav 1.5 potency. Provide a value for each of the molecules that follow.
- Target desc: human Nav1.5 channels stably expressed in HEK 293 cells (Homo sapiens, UniProt Q14524)
- Construct: expressed in transfected cells; host or cells: HEK 293
- Assay notes: IonWorks Quattro automated patch-clamp, inactivated state block of Nav1.5 (selectivity)
- Assay type: cell-based
- Setup conditions: IonWorks measurement, both channels in HEK 293 cells

Entry CN[C@@H](CCC(C)(C)C)CNc1cc(F)c(S(=O)(=O)Nc2ncc(F)s2)cc1Cl — recorded ratio of Nav1.7 potency:Nav 1.5 potency = > 49

Entry CN[C@H](CNc1cc(F)c(S(=O)(=O)Nc2nccs2)cc1Cl)Cc1ccccc1Br — recorded ratio of Nav1.7 potency:Nav 1.5 potency = > 75

Entry CN[C@H](CNc1cc(F)c(S(=O)(=O)Nc2nccs2)cc1Cl)Cc1cccc(F)c1 — recorded ratio of Nav1.7 potency:Nav 1.5 potency = > 1031

* * *

- Target desc: human Nav1.7 channels stably expressed in HEK 293 cells (Homo sapiens, UniProt Q15858)
- Assay notes: IonWorks Quattro automated patch-clamp, inactivated state block of Nav1.7
- Setup conditions: double-pulse protocol, read-out: potency for the Nav 1.7 sodium ion channel (as measured by IonWorks)
Field: IC50. Provide a value for each of the compounds that follow.

Entry CN[C@H](CNc1cc(F)c(S(=O)(=O)Nc2nccs2)cc1Cl)Cc1ccc(Cl)cc1 — recorded IC50 = 33 nM

Entry CN[C@H](CNc1cc(F)c(S(=O)(=O)Nc2ncc(F)s2)cc1Cl)CC1CC1(C)C (some centres unmarked) — recorded IC50 = 68 nM

Entry CN(C)[C@H](CNc1cc(F)c(S(=O)(=O)Nc2ncc(F)s2)cc1Cl)C[Si](C)(C)C — recorded IC50 = 18 nM

Entry CN[C@H](CNc1cc(F)c(S(=O)(=O)Nc2nccs2)cc1Cl)Cc1ccccc1Br — recorded IC50 = 440 nM

Entry CN[C@H](CNc1cc(F)c(S(=O)(=O)Nc2ncc(F)s2)cc1Cl)CC1CCCC1 (single isomer, unassigned) — recorded IC50 = 110 nM

Entry CN[C@H](CNc1cc(F)c(S(=O)(=O)Nc2ncns2)cc1Cl)Cc1ccccc1 — recorded IC50 = 200 nM

Entry CN[C@H](CNc1cc(F)c(S(=O)(=O)Nc2nccs2)cc1Cl)Cc1cccc(F)c1Br — recorded IC50 = 130 nM

Entry CN[C@H](CNc1cc(F)c(S(=O)(=O)Nc2nccs2)cc1Cl)CC1(C(F)(F)F)CC1 — recorded IC50 = 120 nM

Entry CCCC[C@@H](CNc1cc(F)c(S(=O)(=O)Nc2ncc(F)s2)cc1Cl)NCCC — recorded IC50 = 41 nM

Entry CN[C@H](CNc1cc(F)c(S(=O)(=O)Nc2nccs2)cc1Cl)Cc1ccc(C)cc1 — recorded IC50 = 280 nM

Entry [2H]C([2H])([2H])N[C@H](CNc1cc(F)c(S(=O)(=O)Nc2ncc(F)s2)cc1Cl)CC(C)(C)C — recorded IC50 = 64 nM

Entry CN[C@H](CNc1cc(F)c(S(=O)(=O)Nc2ncc(F)s2)cc1C#N)CC(C)(C)C — recorded IC50 = 640 nM

Entry CN[C@@H](CCC(C)(C)C)CNc1cc(F)c(S(=O)(=O)Nc2ncc(F)s2)cc1Cl — recorded IC50 = 670 nM

Entry CN[C@H](CNc1cc(F)c(S(=O)(=O)Nc2ncc(F)s2)cc1Cl)CC1CCC1 — recorded IC50 = 1030 nM
